System: Chlamydia trachomatis (Ctr) strain L2/434/Bu
experimental_details: microbe, parasite or virus in culture
Format: cell-based
experimental_conditions: 75 μM; HeLa229; FIG. 7 and Table 1
outcome_measure: protection against Ctr progeny infection at 75 μM (in words)

Consider the following illustrative entries.
>>> result("COc1ccc(Br)cc1CN[C@H]1C[C@H]2C[C@@H]([C@@H]1C)C2(C)C")
"full protection"
>>> result("C[C@@H]1[C@@H](NCc2ccc(I)cc2)C[C@H]2C[C@@H]1C2(C)C")
"full protection"
>>> result("COc1ccc(Br)cc1CNC12CC3CC(C)(CC(C)(C3)C1)C2")
"full protection"
>>> result("COc1ccc(I)cc1CN[C@H]1C[C@H]2C[C@@H]([C@@H]1C)C2(C)C")
"full protection"

Continue with the next compound.
# lookup: Chlamydia trachomatis (Ctr) strain L2/434/Bu protection against Ctr progeny infection at 75 μM (in words), key = `O=C(CC12CC3CC(CC(C3)C1)C2)N/N=C/c1ccc([N+](=O)[O-])o1`
full protection

---

Tested on: Chlamydia trachomatis (Ctr) strain L2/434/Bu
experimental_details: microbe, parasite or virus in culture
Assay type: cell-based
experimental_conditions: Chlamydia trachomatis, HeLa 229; 75 μM; progeny infection, HeLa229, MOI1, versus solvent-treated cells; read-out: Cellular protection at 75 μM
Please provide measured inhibition at 75 µM for the entries that follow.
Numbers only, in %.

Consider the following illustrative entries.
>>> quantitative_readout("O=C(CC12CC3CC(CC(C3)C1)C2)N/N=C/c1ccc([N+](=O)[O-])o1")
100
>>> quantitative_readout("COc1ccc(Br)cc1CNC12CC3CC(CC(C3)C1)C2")
75.7
>>> quantitative_readout("COc1ccc(I)cc1CN[C@H]1C[C@H]2C[C@@H]([C@@H]1C)C2(C)C")
100
>>> quantitative_readout("O=C(N/N=C/c1cccc([N+](=O)[O-])c1)NC12CC3CC(CC(C3)C1)C2")
81.6
>>> quantitative_readout("C[C@@H]1[C@@H](NCc2ccc(I)cc2)C[C@H]2C[C@@H]1C2(C)C")
100
>>> quantitative_readout("COc1ccc(Br)cc1CNC12CC3CC(C)(CC(C)(C3)C1)C2")
100
>>> quantitative_readout("O=C(Nc1ccc(S(=O)(=O)Nc2nccs2)cc1)C12CC3CC(CC(C3)C1)C2")
87.8

Continue with the next compound.
Give the value of inhibition at 75 µM reported for the following: `COc1ccc(Br)cc1CN[C@H]1C[C@H]2C[C@@H]([C@@H]1C)C2(C)C`
100
